# Species: Rattus norvegicus
# EXPERIMENT DESCRIPTION: Open TG-GATES - Regimen: Single
# Type: toxicity, organism-based, Sprague-Dawley
# Parameters: regimen Single, gender Male, age 6 weeks
# TEST PARAMETERS: in vivo, po, 0 mg/kg, 6 h, tissue Blood, route gavage, dose level Control
READOUT TYPE: MCHC (%)

- COc1ccc(Cl)cc1C(=O)NCCc1ccc(S(=O)(=O)NC(=O)NC2CCCCC2)cc1 [GLYBURIDE]: 32.2
- O=C1CN(/N=C/c2ccc(-c3ccc([N+](=O)[O-])cc3)o2)C(O)=N1: 34.6
- C=CCO: 34.5

----------
# Species on record: Rattus norvegicus
# EXPERIMENT DESCRIPTION: Open TG-GATES - Regimen: Daily Repeat
# Type: toxicity, organism-based, Sprague-Dawley
# Design: regimen Daily Repeat, gender Male, age 6 weeks
# TEST PARAMETERS: in vivo, po, 0 mg/kg, […], tissue Plasma, route gavage, dose level Control, time 28 day
READOUT TYPE: TBIL (mg/dL)

• COc1ccc(O)c(C(C)(C)C)c1.COc1ccc(O)cc1C(C)(C)C [BUTYLATED HYDROXYANISOLE] = 0.054
• Cc1cccc(Nc2cc(Cl)nc(SCC(=O)O)n2)c1C = 0.064
• O=C1NC(=O)C(c2ccccc2)(c2ccccc2)N1 = 0.022
• COc1ccc(Cl)cc1C(=O)NCCc1ccc(S(=O)(=O)NC(=O)NC2CCCCC2)cc1 [GLYBURIDE] = 0.2
• O=P1(N(CCCl)CCCl)NCCCO1 (stereo not given) [CYCLOPHOSPHAMIDE ANHYDROUS] = 0.02

----------
# Organism: Rattus norvegicus
# EXPERIMENT DESCRIPTION: Open TG-GATES - Regimen: Daily Repeat
# Format: toxicity, organism-based, Sprague-Dawley
# Parameters: regimen Daily Repeat, gender Male, age 6 weeks
# TEST PARAMETERS: in vivo, po, 0 mg/kg, […], tissue Blood, route gavage, dose level Control, time 28 day
Recorded Hb, one value per entry.
READOUT TYPE: Hb (g/dL)

• O=C1CN(/N=C/c2ccc(-c3ccc([N+](=O)[O-])cc3)o2)C(O)=N1 = 15.6
• C=CCO = 15.7
• COc1ccc(O)c(C(C)(C)C)c1.COc1ccc(O)cc1C(C)(C)C [BUTYLATED HYDROXYANISOLE] = 15
• O=P1(N(CCCl)CCCl)NCCCO1 (stereo not drawn) [CYCLOPHOSPHAMIDE ANHYDROUS] = 14.8
• COc1ccc(Cl)cc1C(=O)NCCc1ccc(S(=O)(=O)NC(=O)NC2CCCCC2)cc1 [GLYBURIDE] = 15.1
• Cn1cnc([N+](=O)[O-])c1Sc1ncnc2nc[nH]c12 = 15.3
• O=C1NC(=O)C(c2ccccc2)(c2ccccc2)N1 = 15.3
• CS(=O)(=O)Nc1ccc([N+](=O)[O-])cc1Oc1ccccc1 [NIMESULIDE] = 15.1

----------
# Organism: Rattus norvegicus
# EXPERIMENT DESCRIPTION: Open TG-GATES - Regimen: Single
# Format: toxicity, organism-based, Sprague-Dawley
# Parameters: regimen Single, gender Male, age 6 weeks
# TEST PARAMETERS: in vivo, po, 0 mg/kg, 24 h, tissue Plasma, route gavage, dose level Control
We begin with a simple list: items and their reported Cl.
READOUT TYPE: Cl (meq/L)

* CS(=O)(=O)Nc1ccc([N+](=O)[O-])cc1Oc1ccccc1 [NIMESULIDE] | 104.4
* Cc1cccc(Nc2cc(Cl)nc(SCC(=O)O)n2)c1C [PIRINIXIC ACID] | 104.6
* S=C=Nc1cccc2ccccc12 [1-NAPHTHYLISOTHIOCYANATE] | 103.6
* COc1ccc(O)c(C(C)(C)C)c1.COc1ccc(O)cc1C(C)(C)C [BUTYLATED HYDROXYANISOLE] | 106.4
* COc1ccc(Cl)cc1C(=O)NCCc1ccc(S(=O)(=O)NC(=O)NC2CCCCC2)cc1 [GLYBURIDE] | 102.2
* C=CCO [ALLYL ALCOHOL] | 102
* Cn1cnc([N+](=O)[O-])c1Sc1ncnc2nc[nH]c12 [AZATHIOPRINE] | 106.8
* O=C1CN(/N=C/c2ccc(-c3ccc([N+](=O)[O-])cc3)o2)C(O)=N1 [DANTROLENE] | 105.6
